biological target: EGFR L858R/T790M/C797S (BaF3-LTC cells) (Homo sapiens, UniProt P00533, C797S/L858R/T790M); construct: expressed in transfected cells; host or cells: BaF3; experiment: EGFR degradation HTRF assay, BaF3-LTC cells; format: cell-based; conditions: BaF3-LTC, 16h treatment; read-out: LTC DC50
Sequence (P00533 25-1210 T790M/C797S/L858R): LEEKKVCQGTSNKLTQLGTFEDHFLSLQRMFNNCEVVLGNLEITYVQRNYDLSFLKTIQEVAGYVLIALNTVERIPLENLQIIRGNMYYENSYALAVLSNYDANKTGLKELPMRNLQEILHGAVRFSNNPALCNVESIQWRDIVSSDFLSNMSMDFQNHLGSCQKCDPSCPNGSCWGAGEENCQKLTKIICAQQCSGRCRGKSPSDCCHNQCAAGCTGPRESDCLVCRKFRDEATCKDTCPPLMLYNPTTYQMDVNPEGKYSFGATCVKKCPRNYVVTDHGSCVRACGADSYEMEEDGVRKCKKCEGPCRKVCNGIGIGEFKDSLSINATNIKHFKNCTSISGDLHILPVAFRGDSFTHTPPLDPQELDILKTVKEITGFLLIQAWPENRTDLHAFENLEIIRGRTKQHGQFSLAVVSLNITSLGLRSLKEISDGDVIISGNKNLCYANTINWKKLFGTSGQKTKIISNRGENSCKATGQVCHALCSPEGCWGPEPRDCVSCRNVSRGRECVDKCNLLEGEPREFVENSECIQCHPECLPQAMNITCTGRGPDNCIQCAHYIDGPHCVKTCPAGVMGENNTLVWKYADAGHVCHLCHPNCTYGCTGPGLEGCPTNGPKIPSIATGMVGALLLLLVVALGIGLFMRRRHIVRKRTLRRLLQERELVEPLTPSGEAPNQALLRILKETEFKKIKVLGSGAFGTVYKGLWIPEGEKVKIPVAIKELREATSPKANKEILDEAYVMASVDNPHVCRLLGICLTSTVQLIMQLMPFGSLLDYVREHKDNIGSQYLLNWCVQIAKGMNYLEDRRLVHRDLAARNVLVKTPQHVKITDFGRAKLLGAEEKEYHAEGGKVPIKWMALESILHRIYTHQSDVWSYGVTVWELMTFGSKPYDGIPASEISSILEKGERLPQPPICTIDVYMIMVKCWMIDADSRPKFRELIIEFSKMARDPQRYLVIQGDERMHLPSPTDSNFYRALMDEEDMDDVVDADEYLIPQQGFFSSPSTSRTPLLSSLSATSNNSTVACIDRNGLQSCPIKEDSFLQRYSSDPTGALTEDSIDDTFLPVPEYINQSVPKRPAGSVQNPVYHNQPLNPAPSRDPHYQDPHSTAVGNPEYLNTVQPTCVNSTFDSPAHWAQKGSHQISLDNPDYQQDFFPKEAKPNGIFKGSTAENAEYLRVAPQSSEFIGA
# if measured DC50 < 20 nM: 1  # else: -1

compound	assigned-category
CCc1cc(Nc2ncc(Br)c(Nc3ccc4nccnc4c3P(C)(C)=O)n2)c(OC)cc1N1CCC(N2CCN(CC3CCN(c4ccc5c(c4)C(=O)N(C4CCC(=O)NC4=O)C5=O)CC3)CC2)CC1 (centres unmarked)	-1
CCc1cc(Nc2ncc(Br)c(Nc3ccc4nccnc4c3P(C)(C)=O)n2)c(OC)cc1N1CCC(N2CCN(C(=O)C3CN(c4ccc(C5CCC(=O)NC5=O)cc4)C3)CC2)CC1 (centres unmarked)	-1
CCc1cc(Nc2ncc(Br)c(Nc3ccc4nc(C)ccc4c3P(C)(C)=O)n2)c(OC)cc1N1CCC(N2CCN(CCc3ccc4c(cnn4C4CCC(=O)NC4=O)c3)CC2)CC1 (centres unmarked)	1
CCc1cc(Nc2ncc(Br)c(Nc3ccc4nccnc4c3P(C)(C)=O)n2)c(OC)cc1N1CCC(N2CCN(CCc3ccc(C4CCC(=O)NC4=O)c(F)c3)[C@H](COC)C2)CC1 (some centres unmarked)	-1
CCc1cc(Nc2ncc(Br)c(Nc3ccc4nccnc4c3P(C)(C)=O)n2)c(OC)cc1N1CCC(N2CCN(C(=O)[C@@H]3CCN(c4ccc(C5CCC(=O)NC5=O)cc4)C3)CC2)CC1 (some centres unmarked)	-1
CCc1cc(Nc2ncc(Br)c(Nc3ccc4nccnc4c3P(C)(C)=O)n2)c(OC)cc1N1CCC(N2CCN(C(=O)[C@H]3C[C@H](N(C)c4ccc(C5CCC(=O)NC5=O)cc4)C3)CC2)CC1 (some centres unmarked)	1
CCc1cc(Nc2ncc(Br)c(Nc3ccc4nccnc4c3P(C)(C)=O)n2)c(OC)cc1N1CCC(N2CCN(CCCc3cc(F)c(C4CCC(=O)NC4=O)c(F)c3)CC2)CC1 (centres unmarked)	-1
CCc1cc(Nc2ncc(Br)c(Nc3ccc4nccnc4c3P(C)(C)=O)n2)c(OC)cc1N1CCC(N2CCN(CCC3CCN(c4ccc(C5CCC(=O)NC5=O)c(C#N)c4)CC3)CC2)CC1 (centres unmarked)	-1
CCc1cc(Nc2ncc(Br)c(Nc3ccc4nccnc4c3P(C)(C)=O)n2)c(OC)cc1N1CCC(N2CCN(CCNc3cccc4c3CN(C3CCC(=O)NC3=O)C4=O)CC2)CC1 (centres unmarked)	1
CCc1cc(Nc2ncc(Br)c(Nc3ccc4nccnc4c3P(C)(C)=O)n2)c(OC)cc1N1CCC(N2CCN(C3CCN(c4ccc(C5CCC(=O)NC5=O)cc4)CC3)CC2)CC1 (centres unmarked)	-1
CCc1cc(Nc2ncc(Br)c(Nc3ccc4nccnc4c3P(C)(C)=O)n2)c(OC)cc1N1CCC(N2CCN(CC3CN(c4ccc5c(c4)C(=O)N(C4CCC(=O)NC4=O)C5)C3)CC2)CC1 (centres unmarked)	1
CCc1cc(Nc2ncc(Br)c(Nc3ccc4nc(C)ccc4c3P(C)(C)=O)n2)c(OC)cc1N1CCC(N2CCN(CCCOc3cc(F)c(C4CCC(=O)NC4=O)c(F)c3)CC2)CC1 (centres unmarked)	-1
CCc1cc(Nc2ncc(Br)c(Nc3ccc4nc(C(F)(F)F)ccc4c3P(C)(C)=O)n2)c(OC)cc1N1CCC(N2CCN(C(=O)C3CN(c4ccc5c(c4)CN(C4CCC(=O)NC4=O)C5=O)C3)CC2)CC1 (centres unmarked)	1
CCc1cc(Nc2ncc(Br)c(Nc3ccc4nc(C)ccc4c3P(C)(C)=O)n2)c(OC)cc1N1CCC(N2CCN(C(=O)C3CN(CCc4cc(F)c(C5CCC(=O)NC5=O)c(F)c4)C3)CC2)CC1 (centres unmarked)	-1
CCc1cc(Nc2ncc(Br)c(Nc3ccc4nccnc4c3P(C)(C)=O)n2)c(OC)cc1N1CCC(N2CCN(CCCCc3cc(F)c(C4CCC(=O)NC4=O)c(F)c3)CC2)CC1 (centres unmarked)	-1
CCc1cc(Nc2ncc(Br)c(Nc3ccc4nccnc4c3P(C)(C)=O)n2)c(OC)cc1N1CCC(N2CCN(CCc3cc(F)c(C4CCC(=O)NC4=O)cc3F)CC2)CC1 (centres unmarked)	-1
CCc1cc(Nc2ncc(Br)c(Nc3ccc4nccnc4c3P(C)(C)=O)n2)c(OC)cc1N1CCC(N2CCN(C[C@@H]3CCN(c4ccc5c(c4)CN(C4CCC(=O)NC4=O)C5=O)C3)CC2)CC1 (some centres unmarked)	1
CCc1cc(Nc2ncc(Br)c(Nc3ccc4nccnc4c3P(C)(C)=O)n2)c(OC)cc1N1CCC(N2CCN(CCc3ccc(C4CCC(=O)NC4=O)c(F)c3)[C@@H](CO)C2)CC1 (some centres unmarked)	-1
CCc1cc(Nc2ncc(Br)c(Nc3ccc4nccnc4c3P(C)(C)=O)n2)c(OC)cc1N1CCC(N2CCN(C[C@H]3CCN(c4ccc5c(c4)C(=O)N(C4CCC(=O)NC4=O)C5=O)C3)CC2)CC1 (some centres unmarked)	-1
CCc1cc(Nc2ncc(Br)c(Nc3ccc4nc(C)ccc4c3P(C)(C)=O)n2)c(OC)cc1N1CCC(N2CCN(CC3CN(c4ccc(C5CCC(=O)NC5=O)c(C#N)c4)C3)CC2)CC1 (centres unmarked)	1

---

Below, each entry is listed alongside its reported Dmax.
target: EGFR L858R/T790M/C797S (BaF3-LTC cells) (Homo sapiens, UniProt P00533, C797S/L858R/T790M); construct: expressed in transfected cells; host or cells: BaF3; assay: EGFR degradation HTRF assay, BaF3-LTC cells; type: cell-based; conditions: BaF3-LTC, 16h treatment, maximum percentage of degradation; read-out: LTC Dmax (%)
assay-readout: Dmax (%)

compound	assay-readout	unit-annotation	result-number
CCc1cc(Nc2ncc(Br)c(Nc3ccc4nccnc4c3P(C)(C)=O)n2)c(OC)cc1N1CCC(N2CCN(C(=O)[C@H]3C[C@H](N(C)c4ccc(C5CCC(=O)NC5=O)cc4)C3)CC2)CC1 (stereo partly shown)	Dmax	%	83.1
CCc1cc(Nc2ncc(Br)c(Nc3ccc4ncc(F)cc4c3P(C)(C)=O)n2)c(OC)cc1N1CCC(N2CCN(CCc3cc(F)c(C4CCC(=O)NC4=O)c(F)c3)CC2)CC1 (stereo not shown)	Dmax	%	88.5
CCc1cc(Nc2ncc(Br)c(Nc3ccc4c(=O)n(C)ncc4c3P(C)(C)=O)n2)c(OC)cc1N1CCC(N2CCN(CCc3cc(F)c(C4CCC(=O)NC4=O)c(F)c3)CC2)CC1 (stereo not shown)	Dmax	%	91
COc1cc(N2CCC(N3CCN(C(=O)C4CCN(CC5CCN(c6ccc7c(c6)C(=O)N(C6CCC(=O)NC6=O)C7=O)CC5)CC4)CC3)CC2)ccc1Nc1ncc(Cl)c(Nc2ccccc2P(C)(C)=O)n1 (stereo not shown)	Dmax	%	91
CCc1cc(Nc2ncc(Br)c(Nc3ccc4nccnc4c3P(C)(C)=O)n2)c(OC)cc1N1CCC(N2CCN(CC3CN(c4ccc5c(c4)CN(C4CCC(=O)NC4=O)C5=O)C3)CC2)CC1 (stereo not shown)	Dmax	%	92.9
CCc1cc(Nc2ncc(Br)c(Nc3ccc4nccnc4c3P(C)(C)=O)n2)c(OC)cc1N1CCC(N2CCN(C3CC4(CCN(c5ccc(C6CCC(=O)NC6=O)cc5)CC4)C3)CC2)CC1 (stereo not shown)	Dmax	%	76.3
CCc1cc(Nc2ncc(Br)c(Nc3ccc4nccnc4c3P(C)(C)=O)n2)c(OC)cc1N1CCC(N2CCN(CC3CN(c4cc(F)c(C5CCC(=O)NC5=O)c(F)c4)C3)CC2)CC1 (stereo not shown)	Dmax	%	86.3
CCc1cc(Nc2ncc(Br)c(Nc3ccc4ncccc4c3P(C)(C)=O)n2)c(OC)cc1N1CCC(N2CCN(CCC3CCN(c4cc(F)c(C5CCC(=O)NC5=O)c(F)c4)CC3)CC2)CC1 (stereo not shown)	Dmax	%	87.8
CCc1cc(Nc2ncc(Br)c(Nc3ccc4nc(C)ccc4c3P(C)(C)=O)n2)c(OC)cc1N1CCC(N2CCN(CCc3ccc4c(c3)N(C3CCC(=O)NC3=O)C(=O)C4(C)C)CC2)CC1 (stereo not shown)	Dmax	%	93.2
CCc1cc(Nc2ncc(Br)c(Nc3ccc4nc(C)ccc4c3P(C)(C)=O)n2)c(OC)cc1N1CCC(N2CCN(CC3CN(c4ccc(C5CCC(=O)NC5=O)c(C#N)c4)C3)CC2)CC1 (stereo not shown)	Dmax	%	91.3

---

molecular target: EGFR L858R/T790M/C797S (BaF3-LTC cells) (Homo sapiens, UniProt P00533, C797S/L858R/T790M); construct: expressed in transfected cells; host or cells: BaF3; assay: EGFR degradation HTRF assay, BaF3-LTC cells; format: cell-based; settings: BaF3-LTC cells; EGFR degradation, IC50 (DC50) from curve fit; read-out: DC50(nM) BaF3-LTC
Here the recorded DC50 is given for each entry.

molecule	study-target	DC50 (nM)
CCOc1cc(N2CCC(N3CCN(CCc4cc(Cl)cc5c4oc(=O)n5C4CCC(=O)NC4=O)CC3)CC2)c(CC)cc1Nc1ncc(Br)c(Nc2ccc3c(=O)n(CC)ncc3c2P(C)(C)=O)n1 (stereo not shown)	EGFR L858R/T790M/C797S (BaF3-LTC cells) (Homo sapiens, UniProt P00533, C797S/L858R/T790M)	25
CCc1ccc2c(P(C)(C)=O)c(Nc3nc(Nc4cc(CC)c(N5CCC(N6CCN(C(=O)[C@@H]7CCN(c8cc(F)c([C@H]9CCC(=O)NC9=O)c(F)c8)C7)CC6)CC5)cc4OC4CC4)ncc3Br)ccc2n1	EGFR L858R/T790M/C797S (BaF3-LTC cells) (Homo sapiens, UniProt P00533, C797S/L858R/T790M)	16.4
CCc1ccc2c(P(C)(C)=O)c(Nc3nc(Nc4cc(CC)c(N5CCC(N6CCN(C(=O)C7CN(c8cc(F)c([C@H]9CCC(=O)NC9=O)c(F)c8)C7)CC6)CC5)cc4OC)ncc3Br)ccc2n1	EGFR L858R/T790M/C797S (BaF3-LTC cells) (Homo sapiens, UniProt P00533, C797S/L858R/T790M)	4.13
CCc1ncc2c(P(C)(C)=O)c(Nc3nc(Nc4cc(CC)c(N5CCC(N6CCN(CCc7ccc8c(c7)oc(=O)n8C7CCC(=O)NC7=O)CC6)CC5)cc4OC)ncc3Br)ccc2n1 (stereo not shown)	EGFR L858R/T790M/C797S (BaF3-LTC cells) (Homo sapiens, UniProt P00533, C797S/L858R/T790M)	1.95
CCOc1cc(N2CCC(N3CCN(CCCc4cc(Cl)cc5c4oc(=O)n5C4CCC(=O)NC4=O)CC3)CC2)c(CC)cc1Nc1ncc(Br)c(Nc2ccc3nc(CC)ccc3c2P(C)(C)=O)n1 (stereo not shown)	EGFR L858R/T790M/C797S (BaF3-LTC cells) (Homo sapiens, UniProt P00533, C797S/L858R/T790M)	7.11
CCc1ccc2c(P(C)(C)=O)c(Nc3nc(Nc4cc(CC)c(N5CCC(N6CCN(CCc7c(F)ccc8c7n(C)c(=O)n8C7CCC(=O)NC7=O)CC6)CC5)cc4OC)ncc3Br)ccc2n1 (stereo not shown)	EGFR L858R/T790M/C797S (BaF3-LTC cells) (Homo sapiens, UniProt P00533, C797S/L858R/T790M)	3.96
CCc1ccc2c(P(C)(C)=O)c(Nc3nc(Nc4cc(CC)c(N5CCC(N6CCN(CCc7cc8oc(=O)n(C9CCC(=O)NC9=O)c8cc7F)CC6)CC5)cc4OC)ncc3Br)ccc2n1 (stereo not shown)	EGFR L858R/T790M/C797S (BaF3-LTC cells) (Homo sapiens, UniProt P00533, C797S/L858R/T790M)	3.25
CCOc1cc(N2CCC(N3CCN(CC4CN(c5cccc6c5oc(=O)n6C5CCC(=O)NC5=O)C4)CC3)CC2)c(CC)cc1Nc1ncc(Br)c(Nc2cc(F)c3nc(CC)ccc3c2P(C)(C)=O)n1 (stereo not shown)	EGFR L858R/T790M/C797S (BaF3-LTC cells) (Homo sapiens, UniProt P00533, C797S/L858R/T790M)	7.47
CCc1cc(Nc2ncc(Br)c(Nc3ccc4nc(C)ccc4c3P(C)(C)=O)n2)c(OC)cc1N1CCC(N2CCN(C(=O)C3CCN(c4cc(F)c(C5CCC(=O)NC5=O)c(F)c4)CC3)CC2)CC1 (stereo not shown)	EGFR L858R/T790M/C797S (BaF3-LTC cells) (Homo sapiens, UniProt P00533, C797S/L858R/T790M)	7
CCc1cc(Nc2ncc(Br)c(Nc3ccc4nc(C)ccc4c3P(C)(C)=O)n2)c(OC)cc1N1CCC(N2CCN(CCc3cccc4c3oc(=O)n4C3CCC(=O)NC3=O)CC2)CC1 (stereo not shown)	EGFR L858R/T790M/C797S (BaF3-LTC cells) (Homo sapiens, UniProt P00533, C797S/L858R/T790M)	6.1
